For each of the compounds below, state its IC50.
- tested_target: Histone deacetylase 2 (Homo sapiens)
- Sequence (Q92769 whole entry): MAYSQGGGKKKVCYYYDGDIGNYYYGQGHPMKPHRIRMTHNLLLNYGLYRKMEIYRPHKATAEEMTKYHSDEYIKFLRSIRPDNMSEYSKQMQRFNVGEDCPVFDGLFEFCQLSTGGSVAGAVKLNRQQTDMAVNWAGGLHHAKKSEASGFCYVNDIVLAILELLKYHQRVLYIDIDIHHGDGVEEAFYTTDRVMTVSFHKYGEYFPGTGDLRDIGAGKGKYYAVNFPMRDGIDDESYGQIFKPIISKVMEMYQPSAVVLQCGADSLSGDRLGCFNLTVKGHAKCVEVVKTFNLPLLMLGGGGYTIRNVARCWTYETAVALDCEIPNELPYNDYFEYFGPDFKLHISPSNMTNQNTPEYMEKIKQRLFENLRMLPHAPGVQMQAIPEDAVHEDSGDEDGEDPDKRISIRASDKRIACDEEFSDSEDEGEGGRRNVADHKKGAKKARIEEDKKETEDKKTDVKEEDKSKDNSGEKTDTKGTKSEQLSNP
- test_details: biochemical
- Description: Inhibition of recombinant full length human HDAC2 expressed in baculovirus infected Sf9 cells using Ac-peptide-AMC as substrate preincubated for 15 mins followed by substrate addition and measured after 60 mins by fluorescence based assay
Answers are plain numbers, in nM.

| structure_smiles | IC50 [nM] |
| --- | --- |
| CC(C)[C@@H]1NC(=O)[C@]2(C)CSC(=N2)c2csc(n2)CNC(=O)C[C@@H](/C(F)=C/CCS)NC1=O | 7.42 |
| CC(C)[C@@H]1NC(=O)[C@]2(C)CSC(=N2)c2csc(n2)CNC(=O)C[C@@H](/C=C(\F)CCS)OC1=O | 2.46 |
| CC(C)[C@@H]1NC(=O)[C@]2(C)CSC(=N2)c2csc(n2)CNC(=O)C[C@@H](/C=C/C(F)(F)CS)OC1=O | 18.5 |

Kindly give each listed record's IC50.
1. CC(C)[C@@H]1NC(=O)[C@]2(C)CSC(=N2)c2csc(n2)CNC(=O)C(F)(F)[C@@H](/C=C/CCS)NC1=O
2. CC(C)[C@@H]1NC(=O)[C@]2(C)CSC(=N2)c2csc(n2)CNC(=O)C[C@H](/C(F)=C/CCS)OC1=O

Response:
1: 9.25; 2: 95.5
